- experimental.protocol: Potency in clonogenic assay defined by Hypersensitivity factor calculated for AA8 cells versus EMT6 cells [IC50(AA8)/IC50 (EMT6)]
- Type: functional
Decision: Hypersensitivity factor >= 2 yields Y, all other cases yield N.

molecule=CN(C)CCNC(=O)c1cc([N+](=O)[O-])cc([N+](=O)[O-])c1N(CCCl)CCCl assigned_label=Y
molecule="O=C(NCC(O)CO)c1cc([N+](=O)[O-])c(N(CCCl)CCCl)c([N+](=O)[O-])c1 (centres undefined)" assigned_label=Y
molecule=CN(C)CCNC(=O)c1cc([N+](=O)[O-])c(N(CCCl)CCCl)cc1[N+](=O)[O-] assigned_label=Y
molecule=CN(C)CCNC(=O)c1cc(N(CCCl)CCCl)c([N+](=O)[O-])cc1[N+](=O)[O-] assigned_label=Y
molecule=CN(C)CCNC(=O)c1cc([N+](=O)[O-])c([N+](=O)[O-])cc1N(CCCl)CCCl assigned_label=Y
molecule=NC(=O)c1cc(N(CCCl)CCCl)c([N+](=O)[O-])cc1[N+](=O)[O-] assigned_label=N
molecule=NC(=O)c1cc([N+](=O)[O-])cc([N+](=O)[O-])c1N(CCCl)CCCl assigned_label=N
molecule="O=C(NCC(O)CO)c1c([N+](=O)[O-])ccc(N(CCCl)CCCl)c1[N+](=O)[O-] (centres undefined)" assigned_label=N
molecule=NC(=O)c1cc([N+](=O)[O-])c(N(CCCl)CCCl)c([N+](=O)[O-])c1 assigned_label=N
